# System: Flavobacterium 2 (Flavobacterium succinicans)
# Test Protocol: relative growth (AUC of 72 h growth curve relative to DMSO control, dAUC) (ratio); higher = more growth (less inhibition), active = hit call of the paper
# Conditions Used: 20 µM
Classification field: label 1 = relative growth at or over 0.9; label 0 = relative growth under 0.9.

Here are 5 compounds together with their reported answers.
{"Compound": "COP(=O)(OC)OC=C(Cl)Cl", "Target Under Test": "Flavobacterium 2 (Flavobacterium succinicans)", "Class Assignment": "label 1"}
{"Compound": "CCCN(CCOc1c(Cl)cc(Cl)cc1Cl)C(=O)n1ccnc1", "Target Under Test": "Flavobacterium 2 (Flavobacterium succinicans)", "Class Assignment": "label 1"}
{"Compound": "O=[N+]([O-])c1cc(C(F)(F)F)c(Cl)c([N+](=O)[O-])c1Nc1ncc(C(F)(F)F)cc1Cl", "Target Under Test": "Flavobacterium 2 (Flavobacterium succinicans)", "Class Assignment": "label 0"}
{"Compound": "N#Cc1c[nH]cc1-c1cccc2c1OC(F)(F)O2", "Target Under Test": "Flavobacterium 2 (Flavobacterium succinicans)", "Class Assignment": "label 0"}
{"Compound": "N#CCNC(=O)c1cnccc1C(F)(F)F", "Target Under Test": "Flavobacterium 2 (Flavobacterium succinicans)", "Class Assignment": "label 1"}

Moving on to another compound below.
Query string: Dear colleague, could you confirm whether CC(C)(C)C(O)(CCc1ccc(Cl)cc1)Cn1cncn1 (stereo not drawn) has relative growth at or above 0.9?
Result string: label 0
